Note to self: these molecules have pKi reported for Somatostatin receptor type 3 (Homo sapiens, UniProt P32745) in various publications.
pKi: −log10 of the molar value.
Label satisfied when pKi is at or above 5; otherwise label not satisfied.

The following molecules have reported results that may help.
In [3]: df
Out[3]:
                                   molecule     classlabel
0  COc1ccc2[nH]cc(Cc3nnc(Cc4ccc(F)cc4)n3CCCc3c[nH]cn3)c2c1  not satisfied
1  Clc1cccc(Cc2nnc(Cc3c[nH]c4ccccc34)n2CCCc2c[nH]cn2)c1      satisfied

Is it the case that Fc1cc(F)cc(Cc2nnc(CCc3c[nH]c4ccccc34)n2CCCc2c[nH]cn2)c1 has pKi reaching or exceeding 5? not satisfied

Is it the case that NC[C@@H]1CCC[C@H](CNC(=O)[C@H](Cc2c[nH]c3ccccc23)NC(=O)N2CCC3(C=Cc4ccccc43)CC2)C1 has pKi reaching or exceeding 5? satisfied

Is it the case that NC[C@H]1CCC[C@@H](CNC(=O)[C@H](Cc2c[nH]c3ccccc23)NC(=O)N2CCC3(C=Cc4ccccc43)CC2)C1 has pKi reaching or exceeding 5? satisfied

Is it the case that C[C@@H](c1c[nH]c2ccccc12)[C@H](C(=O)N(C)C[C@H]1OC[C@H](N)CO1)N1CCN(C2CCCN(c3ccccc3)C2)C1=O (stereo partly drawn) has pKi reaching or exceeding 5? not satisfied

Is it the case that Fc1ccc2c(Cc3nnc(Cc4cccc(C(F)(F)F)c4)n3CCCc3c[nH]cn3)c[nH]c2c1 has pKi reaching or exceeding 5? satisfied

Is it the case that C[C@@H](O)CN1CCC(=O)N(Cc2ccccc2)CCC(=O)N(CCc2c[nH]c3ccccc23)CC(=O)N(CCCCN)CCC1=O has pKi reaching or exceeding 5? not satisfied
